# Protocol notes: Single dose pharmacokinetics in CD1 mice (IV, IP, PO), plasma LC-MS/MS
# Format: in vivo, mouse
# Condition label: male, CD1, mouse, in vivo, iv, 5 mg/kg, Plasma concentration, Mean

| Molecule | concentration at 360 min [ng/mL] |
| --- | --- |
| N#Cc1ccc(/C=C2/C(=O)/C(=C/c3ccc(C#N)cc3)C23CCNCC3)cc1 [Up284] | 238 |

###

# Protocol notes: Single dose pharmacokinetics in CD1 mice (IV, IP, PO), plasma LC-MS/MS
# Type: in vivo, mouse
# Condition label: male, CD1, mouse, in vivo, iv, 5 mg/kg, Plasma concentration, Mean
# Method: For single dose pharmacokinetic studies, plasma samples (40 μL) were mixed with 200 μL of a water-methanol mixture 1:9, v/v containing the internal standard elacridar at 400 ng/mL. […] The lower limit of quantitation (LLOQ) in plasma was 50 ng/mL. Pharmacokinetic parameters were calculated from mean concentration-time data using non-compartmental methods in Phoenix WinNonlin version 8.3 (Certara, Princeton, NJ). […] The AUClast was calculated using the log-linear trapezoidal method. […]

| Structure notation | concentration at 15 min, ng/mL |
| --- | --- |
| N#Cc1ccc(/C=C2/C(=O)/C(=C/c3ccc(C#N)cc3)C23CCNCC3)cc1 | 1510 |
